Test system: NCI-H226 complex tumor spheroids, viability
method-summary: Anticancer human tumor NCI-H226 cell line growth inhibition;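 note: spheroids exposed to compound for 7 days; 100% = DMSO vehicle control viability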
condition: second compound 10 µM; first compound 0.949 µM; active compounds read low
Reported viability, T/C values for the following compounds.
Only the number, expressed in %, is required.

- compound: "Cc1sc2c(c1C)C(c1ccc(Cl)cc1)=NC(CC(=O)Nc1ccc(O)cc1)c1nnc(C)n1-2 (centres undefined) + Cn1nnc2c(C(N)=O)ncn2c1=O"
  measurement-units: "%"
  recorded-result: 46.8

Exercise: Fetch value of viability, T/C on NCI-H226 complex tumor spheroids, viability for CNCc1ccc(-c2cc(-c3nc(-c4ccc(S(=O)(=O)C(C)C)cc4)cnc3N)on2)cc1 + Cn1nnc2c(C(N)=O)ncn2c1=O .
Key: 31.8

Exercise: Fetch value of viability, T/C on NCI-H226 complex tumor spheroids, viability for Cn1ncnc1[C@H]1c2n[nH]c(=O)c3cc(F)cc(c23)N[C@@H]1c1ccc(F)cc1 + Cn1nnc2c(C(N)=O)ncn2c1=O .
Key: 89.5

Exercise: Fetch value of viability, T/C on NCI-H226 complex tumor spheroids, viability for O=C(c1cc(Cc2n[nH]c(=O)c3ccccc23)ccc1F)N1CCN(C(=O)C2CC2)CC1 + Cn1nnc2c(C(N)=O)ncn2c1=O .
Key: 95.1

* * *

Tested on: NCI-H226 complex tumor spheroids, viability
method-summary: Anticancer human tumor NCI-H226 cell line growth inhibition;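 note: spheroids exposed to compound for 7 days; 100% = DMSO vehicle control viability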
condition: second compound 0.0003 µM; first compound 3 µM; active compounds read low
endpoint-label: viability, T/C

- compound: "Cc1sc2c(c1C)C(c1ccc(Cl)cc1)=NC(CC(=O)Nc1ccc(O)cc1)c1nnc(C)n1-2 (centres undefined) + COc1cc2c(cc1O)CCNC21CSC2c3c(OC(C)=O)c(C)c4c(c3C(COC1=O)N1C(O)C3Cc5cc(C)c(OC)c(O)c5C(C21)N3C)OCO4"
  endpoint-label: "viability, T/C"
  recorded-result: "48.7%"
- compound: "O=C(c1cc(Cc2n[nH]c(=O)c3ccccc23)ccc1F)N1CCN(C(=O)C2CC2)CC1 + COc1cc2c(cc1O)CCNC21CSC2c3c(OC(C)=O)c(C)c4c(c3C(COC1=O)N1C(O)C3Cc5cc(C)c(OC)c(O)c5C(C21)N3C)OCO4"
  endpoint-label: "viability, T/C"
  recorded-result: "118%"

Exercise: For the compound CNCc1ccc(-c2cc(-c3nc(-c4ccc(S(=O)(=O)C(C)C)cc4)cnc3N)on2)cc1 + COc1cc2c(cc1O)CCNC21CSC2c3c(OC(C)=O)c(C)c4c(c3C(COC1=O)N1C(O)C3Cc5cc(C)c(OC)c(O)c5C(C21)N3C)OCO4 , give its reported viability, T/C.
Key: 0.44%

Exercise: For the compound Cn1ncnc1[C@H]1c2n[nH]c(=O)c3cc(F)cc(c23)N[C@@H]1c1ccc(F)cc1 + COc1cc2c(cc1O)CCNC21CSC2c3c(OC(C)=O)c(C)c4c(c3C(COC1=O)N1C(O)C3Cc5cc(C)c(OC)c(O)c5C(C21)N3C)OCO4 , give its reported viability, T/C.
Key: 113%

* * *

Reported viability, T/C values for the following molecules.
System: NCI-H226 complex tumor spheroids, viability
method-summary: Anticancer human tumor NCI-H226 cell line growth inhibition;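 note: spheroids exposed to compound for 7 days; 100% = DMSO vehicle control viability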
condition: second compound 94.9 pM; first compound 0.949 µM; active compounds read low
Only the number, expressed in %, is required.

Recorded viability, T/C, per entry:
- molecule: "O=C(c1cc(Cc2n[nH]c(=O)c3ccccc23)ccc1F)N1CCN(C(=O)C2CC2)CC1 + COc1cc2c(cc1O)CCNC21CSC2c3c(OC(C)=O)c(C)c4c(c3C(COC1=O)N1C(O)C3Cc5cc(C)c(OC)c(O)c5C(C21)N3C)OCO4"
  viability, T/C, %: 105
- molecule: "Cn1ncnc1[C@H]1c2n[nH]c(=O)c3cc(F)cc(c23)N[C@@H]1c1ccc(F)cc1 + COc1cc2c(cc1O)CCNC21CSC2c3c(OC(C)=O)c(C)c4c(c3C(COC1=O)N1C(O)C3Cc5cc(C)c(OC)c(O)c5C(C21)N3C)OCO4"
  viability, T/C, %: 101
- molecule: "CNCc1ccc(-c2cc(-c3nc(-c4ccc(S(=O)(=O)C(C)C)cc4)cnc3N)on2)cc1 + COc1cc2c(cc1O)CCNC21CSC2c3c(OC(C)=O)c(C)c4c(c3C(COC1=O)N1C(O)C3Cc5cc(C)c(OC)c(O)c5C(C21)N3C)OCO4"
  viability, T/C, %: 80.9

API: the following record is the query input.
Exercise: For the molecule Cc1sc2c(c1C)C(c1ccc(Cl)cc1)=NC(CC(=O)Nc1ccc(O)cc1)c1nnc(C)n1-2 (centres undefined) + COc1cc2c(cc1O)CCNC21CSC2c3c(OC(C)=O)c(C)c4c(c3C(COC1=O)N1C(O)C3Cc5cc(C)c(OC)c(O)c5C(C21)N3C)OCO4 , give its reported viability, T/C.
Key: 73.9
